system: EBV; test: Anti-EBV slot blot assay of EBV DNA in H1 cells; type: cell-based, Epstein-Barr virus; details: human gammaherpesvirus 4, 120 h; H1 cells, 5 days, EC50 of Table 2; read-out: Anti-EBV EC50
pEC50: −log10 of the molar value.
measured_quantity: pEC50

Nc1nc(O)c2ncn(COC(CO)CO)c2n1 [DHPG, gancyclovir, reference compound]; 5.30
O=c1[nH]c(=O)n([C@@H]2CO[C@H](CO)O2)cc1Cl [L-CI-OddU]; 5.52
O=c1[nH]c(=O)n([C@@H]2CO[C@H](CO)O2)cc1F [L-F-OddU]; 4.30
O=c1[nH]c(=O)n([C@@H]2CO[C@H](CO)O2)cc1I [L-I-OddU]; 7.00

###

tested on: EBV; experiment: Anti-EBV slot blot assay of EBV DNA in H1 cells; format: cell-based, Epstein-Barr virus; details: human gammaherpesvirus 4; EBV, Table 3; read-out: EC50
measured_quantity: EC50 (nM)

O=c1[nH]c(=O)n([C@@H]2CO[C@H](CO)O2)cc1I; 100

###

system: mitochondrial DNA; experiment: mt DNA content (toxicity to mitochondria, slot blot rehybridization); assay type: cell-based, human; details: read-out: mt DNA Content ID50
pIC50: −log10 of the molar value.
measured_quantity: pIC50

Nc1ccn([C@H]2CC[C@@H](CO)O2)c(=O)n1 [ddC, reference compound]; 7.70

###

test system: cell growth; experiment: Cytotoxicity (cell growth); conditions: human, H1 cells
# IC50 listing for each entry below
measured_quantity: IC50

O=c1[nH]c(=O)n([C@@H]2CO[C@H](CO)O2)cc1Cl [L-CI-OddU]; > 100 µM
O=c1[nH]c(=O)n([C@@H]2CO[C@H](CO)O2)cc1I [L-I-OddU]; > 100 µM
O=c1ccn([C@@H]2CO[C@H](CO)O2)c(=O)[nH]1 [L-OddU]; > 100 µM
O=c1[nH]c(=O)n([C@@H]2CO[C@H](CO)O2)cc1F [L-F-OddU]; > 100 µM
Nc1nc(O)c2ncn(COC(CO)CO)c2n1 [DHPG, gancyclovir, reference compound]; 75 µM

###

// reported pIC50 for each item listed
tested on: cell growth; assay: Cytotoxicity (cell growth); details: read-out: Cytotoxicity IC50; cell growth
pIC50: −log10 of the molar value.
measured_quantity: pIC50

O=c1[nH]c(=O)n([C@@H]2CO[C@H](CO)O2)cc1C(F)(F)F; < 4.00
O=c1[nH]c(=O)n([C@@H]2CO[C@H](CO)O2)cc1Br; < 4.00
Nc1ccn([C@H]2CC[C@@H](CO)O2)c(=O)n1 [ddC, reference compound]; 4.70

###

Reported CC50 at 10 days values follow for various molecules
test: Neutral red uptake cytotoxicity assay; format: cell-based; conditions: human, uninfected human foreskin fibroblast (HFF) cells
measured_quantity: CC50 at 10 days

O=c1[nH]c(=O)n([C@@H]2CO[C@H](CO)O2)cc1Cl; > 100 µg/mL
O=c1[nH]c(=O)n([C@@H]2CO[C@H](CO)O2)cc1I; > 100 µg/mL
Nc1nc2c(ncn2COCCO)c(=O)[nH]1 [ACV (acycloguanine), acyclovir, reference compound]; > 100 µg/mL
